- procedureDetails: Pharmacokinetics of intact platinum-based drugs in rats (UPLC-MS/MS) in blood, plasma and ultrafiltrate plasma
- conditionDescription: intact drug in ultrafiltrate plasma, intraperitoneal, 16.7 nmol/kg, mean ± sd (n = 6)
assayReadout: Cmax (µM)
A number alone suffices; assume µM.

Query: Cmax; subject: O=C1[O][Pt]2([NH][C@@H]3CCCC[C@H]3[NH]2)[O]C1=O
3.93

Query: Cmax; subject: N.N.O=C([O-])C1(C(=O)[O-])CCC1.[Pt+2]
10.1

----------
- procedureDetails: Pharmacokinetics of intact platinum-based drugs in rats (UPLC-MS/MS) in blood, plasma and ultrafiltrate plasma
- conditionDescription: intact drug in plasma, intraperitoneal, 16.7 nmol/kg, mean ± sd (n = 6)
Please provide measured Cmax for the entries that follow.
Number first, unit second.

Query: Cmax; subject: O=C1[O][Pt]2([NH][C@@H]3CCCC[C@H]3[NH]2)[O]C1=O [oxaliplatin, Oxaliplatin]
3.9 µM

Query: Cmax; subject: N.N.O=C([O-])C1(C(=O)[O-])CCC1.[Pt+2] [carboplatin, Carboplatin]
11.2 µM
